pIC50 by entry:
experimental-target: Brdt(BD1) (Homo sapiens, UniProt Q58F21)
Construct: GST tagged bromodomain proteins were purchased from BPS Bioscience
experiment-summary: HTRF BET selectivity profile, Brdt(BD1)
Notebook: values listed as pIC50 are -log10 of the concentration (mol/L).

// known answers, use as guide
>>> value_observed("CCn1cnc2c1c(=O)[nH]c(=O)n2Cc1ccc(CNS(=O)(=O)c2ccc(OC3CCOCC3)cc2)cc1 [Compound 43b]")
5.96
>>> value_observed("O=C1CCCc2cc(S(=O)(=O)NCC3CCC(C(=O)NCCc4cccs4)CC3)ccc2N1 (single isomer, unassigned)")
4.84
>>> value_observed("CCn1cnc2c1c(=O)[nH]c(=O)n2Cc1ccc(CNS(=O)(=O)c2ccc(-c3ccccc3)cc2)cc1 [Compound 29b]")
4.71

Let us examine a further case.
-- ask I am curious: what pIC50 value has been reported for CCn1cnc2c1c(=O)[nH]c(=O)n2Cc1ccc(CNS(=O)(=O)c2ccn(-c3ccccc3)n2)cc1 [Compound 24b] ?
-- reply 5.20

---

experimental-target: BRD4(BD1) (Homo sapiens)
experiment-summary: HTRF assay, BRD4(BD1)/histone peptide interaction
Format: binding
Parameters: made in house
run-parameters: HTRF; triplicates; NA = IC50 > maximal concentration of compound used
Let's look at some compounds and their measured pIC50.
Worth noting: pIC50 values are minus log10 of concentrations stated in mol/L.

>>> value_observed("CCn1cnc2c1c(=O)[nH]c(=O)n2Cc1ccc(CNS(=O)(=O)c2cc(-c3ccno3)ccc2C)cc1 [Compound 27a]")
5.89

-- ask May I ask what pIC50 has been recorded for CCn1cnc2c1c(=O)[nH]c(=O)n2Cc1ccc(CN)cc1 [Compound 20a] ?
-- reply 4.57

-- ask Now give it for CCn1cnc2c1c(=O)[nH]c(=O)n2Cc1ccc(CNS(=O)(=O)c2ccc3c(c2)n(C)c(=O)n3C)cc1 [Compound 26b] too.
-- reply 6.11

---

experimental-target: Brd3(BD1) (Homo sapiens, UniProt Q15059)
Sequence (Q15059 34-140 limits assumed): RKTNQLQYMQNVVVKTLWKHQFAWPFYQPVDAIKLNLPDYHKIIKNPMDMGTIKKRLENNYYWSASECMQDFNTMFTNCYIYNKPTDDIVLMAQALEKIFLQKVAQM
experiment-summary: HTRF BET selectivity profile, Brd3(BD1)
Description: HTRF assays were performed in white 384 Well Small Volume™ HiBase Polystyrene Microplates (Greiner) with a total working volume of 20 μL. […] Percentage of inhibition was calculated using the following equation: % inhibition=[(compound signal)−(min signal)]/[(max signal)−(min signal)]*100, where ‘max signal’ is the signal ratio with the compound vehicle alone (DMSO) and ‘min signal’ the signal ratio without peptide. […]
outcome-measure: IC50
Lab note: write values as number then unit, every time.

>>> value_observed("CCn1cnc2c1c(=O)[nH]c(=O)n2Cc1ccc(CNS(=O)(=O)c2ccc(N3CCOCC3)cc2)cc1 [Compound 45a]")
"161 nM"
>>> value_observed("O=C1CCCc2cc(S(=O)(=O)C3CCC(C(=O)NCCc4ccccn4)CC3)ccc2N1 (stereo not drawn)")
"22200 nM"
>>> value_observed("CCn1cnc2c1c(=O)[nH]c(=O)n2Cc1ccc(CNS(=O)(=O)c2ccc(OC3CCOCC3)cc2)cc1 [Compound 43b]")
"130 nM"
>>> value_observed("CCn1cnc2c1c(=O)[nH]c(=O)n2Cc1ccc(CNS(=O)(=O)c2ccn(-c3ccccc3)n2)cc1 [Compound 24b]")
"1000 nM"
>>> value_observed("CCn1cnc2c1c(=O)[nH]c(=O)n2Cc1ccc(CNS(=O)(=O)c2ccc3c(c2)CCCC(=O)N3)c2ccccc12 [Compound 31c]")
"5710 nM"

-- ask Can you share its IC50? I mean this molecule: CCn1cnc2c1c(=O)[nH]c(=O)n2Cc1ccc(CNS(=O)(=O)c2ccc(OC3CCCCC3)cc2)cc1 [Compound 43a]
-- reply 258 nM

-- ask Would you kindly repeat that for CCn1cnc2c1c(=O)[nH]c(=O)n2Cc1ccc(CNS(=O)(=O)c2ccc3scnc3c2)cc1 [Compound 25c] ?
-- reply 4770 nM

-- ask Now try CCn1cnc2c1c(=O)[nH]c(=O)n2Cc1ccc(CNS(=O)(=O)c2cc3ccccc3s2)cc1 [Compound 25b] .
-- reply 1540 nM

-- ask Repeat with CCn1cnc2c1c(=O)[nH]c(=O)n2Cc1ccc(CNS(=O)(=O)c2ccc(OC3CCOCC3)c(F)c2)cc1 [Compound 43c]
-- reply 132 nM

-- ask Follow-up entry: CCn1cnc2c1c(=O)[nH]c(=O)n2Cc1ccc(CNS(=O)(=O)c2ccc3c(c2)CCCC(=O)N3)cc1 [Compound 27c]
-- reply 456 nM

-- ask Here is the next molecule: Cc1noc(C)c1CCNC(=O)C1CCC(CNS(=O)(=O)c2ccc3c(c2)CCCC(=O)N3)CC1 (stereo not drawn)
-- reply 5050 nM

-- ask # iterate: CCn1cnc2c1c(=O)[nH]c(=O)n2Cc1ccc(CNS(=O)(=O)c2cccc(-c3ccccc3)c2)cc1 [Compound 29c]
-- reply 1600 nM

-- ask Then CCn1cnc2c1c(=O)[nH]c(=O)n2Cc1ccc(CNS(=O)(=O)c2ccc3c(c2)CCC(=O)N3)cc1 [Compound 27b] ?
-- reply 940 nM

-- ask Also, CCn1cnc2c1c(=O)[nH]c(=O)n2Cc1ccc(CNS(=O)(=O)c2ccc(OCc3ccccc3)cc2)cc1 [Compound 31a] please.
-- reply 596 nM

-- ask Lookup O=C1CCCc2cc(S(=O)(=O)NCC3CCC(C(=O)NCCc4cccs4)CC3)ccc2N1 (single isomer, unassigned)
-- reply 2380 nM
